The measurements presented in this section are drawn from the supplement of paper PMC9170038.

- System: K4 kissing-loop RNA reporter;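 further: bound reporter read as fluorescence of individual clusters on recovered sequencing chips by microscopy, with normalized cluster intensities fitted with a binding model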
- method: apparent KD of K4 kissing-loop reporter; higher = weaker reporter binding
- setup-conditions: Eterna round: R107; input ligand: none
Criterion: apparent KD of K4 kissing-loop reporter meeting or surpassing 300 nM. Met: rule met. Not met: rule not met.

>>> cat("AAACGCUUGAAUAACAAGCGAAUAAAUUCGCGAGGACCGGUACGGCCGCCACUCGCUAACUGCGAGUGAUGUUCGAUAAUAAAAU [Mat - Mod of OpenEnded 3 - D14]")
"rule not met"
>>> cat("CGCAGUGAUGUUGCGAAUAUAAUCACGGAAGGAGCGCGUGAAAACGCAGGUAGGUCGCCGUGUGGUAUGAUGGAAACAUCGUACC [Arginine A K4 12]")
"rule not met"
>>> cat("AGCAUUAUCAGAAGGAGCGUGUAUAAAUCAAUAGUAUUGUAUUCGAGUGAUGUUCGUAAUACACAGGUAGGUCGCUGAUAUUGCA [JR_ExcArginiB_Sub002]")
"rule not met"
>>> cat("GCCGUAGAUGGAAGGAGCGUGUCCAAACCUCAUUCAUGUACACACGAGUGAUGUUCGUGUACACAGGUAGGUCGCCAUCUACGGC")
"rule met"
>>> cat("AAUUAAUGUAUAGAUUAUAUACAUUAAUCAGAGGAUAUGCUUUGUUGCAGAAGGCUGAAUGCAGUGAUGUUGCAAUUUUAAUUUA [JR_SSFMNA_Sub005]")
"rule not met"
>>> cat("UGAUAGGACAGAAGGAGCGGAAGUGAUGUUUCCAAAAGGUAAGGUCGACAAAGUCGACCCUUCCAGGUAGGUCGCUGUCCUAUCU [ArgBX 11 #Palindromic #SwitchBubble #StaticStem]")
"rule not met"
>>> cat("UAAACCAAAUUACGUCACCUUGUCCAAUCUAAGGAUAUGUGAUUCCACAGAAGGUAGCCACGGGAGUGAUGUUCGCGUUAAGGCG [theeternabot_exclusion_KL_FMN_A_31]")
"rule met"
>>> cat("GAUUGUGAUGGAAACAUCGCAAUCUCUGAAGGAGCGCGUGAAAACGCAGGUAGGUCGCAGGACGACUAUGACAGUGAUGUUGUCG [Ex Arginine A K4 3]")
"rule not met"
>>> cat("AACAGCAAUGCGGCCGCCACUUCGAGUUCAGUGAUGUUGAAAGAAUUAAAUAAAGAUCCCAAGAGGAGGACCGGGCAGUGCUGUU [Default title]")
"rule met"
>>> cat("UGUGUUGUUGUGAUGUUUGGUGUUGCAGGGCAGGAUAUCGUAGAGGCGAGAAGGGCUUUUGUGCGGUAUGAGUGAUGUUUGUAGG [rrcgsmullin]")
"rule not met"
>>> cat("GAGCGGUGGAGGUUACCGCUAUUCUGAGAAGGAGCGCAGAUGACUGCAGGUAGGUCGCUUAGAGCUUGCAGUGAUGUUGCAAGUU [Edrirama]")
"rule not met"
>>> cat("CAUACGCAUGGAGGAUAUGAGAUUACUCAUAUCAUUUAAUAUUCUCAGUGAUGUUGAGAUUUGGGCUCAGAAGGCCAUGUGUAUG [Ex FMN B 15]")
"rule met"
